- Test system: Hep3B cells
- Procedure summary: Cancer cell viability assay (CellTiter-Glo 2.0), Hep3B
- Type: cell-based, Human
- Recorded conditions: 72 hours compound treatment
The entries below are paired with their reported EC50.

CCOC(=O)O[C@H](C)n1nnnc1COC[C@H](C)N[C@H]1CC[C@H](Nc2cc(-c3cccc(NCC4(C#N)CCOCC4)n3)c(Cl)cn2)CC1 :: > 1 µM
CC(COCCNS(=O)(=O)C(F)F)NC1CCC(Nc2cc(-c3cccc(NCC4(C#N)CCOCC4)n3)c(Cl)cn2)CC1 (stereo not drawn) :: 0.1 to 0.5 µM
CCOC(=O)O[C@H](C)n1nnnc1COC[C@@H](C)N[C@H]1CC[C@H](Nc2cc(-c3cccc(NCC4(C#N)CCOCC4)n3)c(Cl)cn2)CC1 :: > 1 µM
C[C@H](COCCNS(=O)(=O)C(F)(F)F)NC1CCC(Nc2cc(-c3cccc(NCC4(C#N)CCOCC4)n3)c(Cl)cn2)CC1 (mixture of isomers) :: 0.1 to 0.5 µM
C[C@@H](COCC(=O)O)NC1CCC(Nc2cc(-c3cccc(NCC4(C#N)CCOCC4)n3)c(Cl)cn2)CC1 (stereo partly drawn) :: > 1 µM
C[C@H](COCC(=O)OC(C)(C)C)N[C@H]1CC[C@H](Nc2cc(-c3cccc(NCC4(C#N)CCOCC4)n3)c(Cl)cn2)CC1 :: < 0.1 µM

stdin: Provide the documented EC50 with Hep3B cells as the system for `CCOC(=O)O[C@@H](C)n1nnnc1COC[C@@H](C)N[C@H]1CC[C@H](Nc2cc(-c3cccc(NCC4(C#N)CCOCC4)n3)c(Cl)cn2)CC1`
stdout: > 1 µM

stdin: Now consider `C[C@H](COCc1nnnn1C)N[C@H]1CC[C@H](Nc2cc(-c3cccc(NCC4(C#N)CCOCC4)n3)c(Cl)cn2)CC1` .
stdout: 0.5 to 1 µM

* * *

- Tested on: Hep3B cells
- Procedure summary: Cancer cell viability assay (CellTiter-Glo 2.0), Hep3B
- Format: cell-based, Human
- Recorded conditions: 72 hours compound treatment
pEC50: −log10 of the molar value.
Parameter: pEC50

Example compounds with recorded pEC50:
CCOC(=O)O[C@@H](C)n1nnnc1COC[C@H](C)N[C@H]1CC[C@H](Nc2cc(-c3cccc(NCC4(C#N)CCOCC4)n3)c(Cl)cn2)CC1 :: < 6.00
CCOC(=O)COC[C@H](C)NC1CCC(Nc2cc(-c3cccc(NCC4(C#N)CCOCC4)n3)c(Cl)cn2)CC1 (stereo partly drawn) :: 6.30 to 7.00
C[C@@H](COCc1nnn(C)n1)N[C@H]1CC[C@H](Nc2cc(-c3cccc(NCC4(C#N)CCOCC4)n3)c(Cl)cn2)CC1 :: 6.30 to 7.00
C[C@@H](COCc1nnnn1C)N[C@H]1CC[C@H](Nc2cc(-c3cccc(NCC4(C#N)CCOCC4)n3)c(Cl)cn2)CC1 :: 6.30 to 7.00
CCOC(=O)O[C@@H](C)n1nnc(COC[C@@H](C)N[C@H]2CC[C@H](Nc3cc(-c4cccc(NCC5(C#N)CCOCC5)n4)c(Cl)cn3)CC2)n1 :: < 6.00

Please look at the following compound next.
stdin: Could you tell me which pEC50 is on file for `C[C@H](COCc1nnn(C)n1)N[C@H]1CC[C@H](Nc2cc(-c3cccc(NCC4(C#N)CCOCC4)n3)c(Cl)cn2)CC1` ?
stdout: 6.30 to 7.00
